Exercise: state measured pKi for each of the compounds provided.
- TESTED ON: Aβ1-42 fibrils (Homo sapiens, UniProt P05067)
- Sequence (P05067 672-713 limits assumed): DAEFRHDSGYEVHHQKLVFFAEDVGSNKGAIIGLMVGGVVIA
- PROTOCOL DETAILS: biochemical
Entry type: numeric. Quantity: pKi, the -log10 of concentration in molar units.

Reported pKi of CN(C)c1ccc(/C=C/C=C2C(=O)N(Cc3ccccc3)c3ncccc32)cc1 : 7.07

Reported pKi of CN(C)c1ccc(/C=C/C=C2C(=O)N(Cc3ccc(N)cc3)c3ccccc32)cc1 : 7.00

Reported pKi of CN(C)c1ccc(/C=C/C=C2C(=O)Nc3ncccc32)cc1 : 7.82

Reported pKi of CN(C)c1ccc(/C=C/C=C2C(=O)N(c3ccccc3)c3ccccc32)cc1 : 6.54

Reported pKi of COc1ccc(CN2C(=O)C(=C/C=C/c3ccc(N(C)C)cc3)c3cccnc32)cc1 : 6.97

Reported pKi of CN(C)c1ccc(/C=C/C=C2C(=O)N(Cc3ccccc3)c3ccccc32)cc1 : 6.45

Reported pKi of CN(C)c1ccc(/C=C/C=C2C(=O)N(Cc3ccc([N+](=O)[O-])cc3)c3ccccc32)cc1 : 7.03

Reported pKi of CCOC(=O)N1C(=O)C(=C/C=C/c2ccc(N(C)C)cc2)c2ccccc21 : 7.08

Reported pKi of CN(C)c1ccc(/C=C/C=C2C(=O)N(C)c3ccccc32)cc1 : 7.25

Reported pKi of COc1ccc(CN2C(=O)C(=C/C=C/c3ccc(N(C)C)cc3)c3ccccc32)cc1 : 6.89

Reported pKi of Nc1ccc(/C=C/C=C2C(=O)Nc3ccccc32)cc1 : 7.29

Reported pKi of O=C1Nc2ccccc2C1=C/C=C/c1ccccc1 : 6.57

Reported pKi of COc1ccc(/C=C/C=C2C(=O)N(Cc3ccccc3)c3ccccc32)cc1 : 6.13

Reported pKi of CN(C)c1ccc(/C=C/C=C2C(=O)Nc3ccc(O)cc32)cc1 : 7.43
